Exercise: state measured apparent KD of MS2 coat protein for each of the sequences provided.
Test system: MS2 coat protein
Measurement Protocol: apparent KD of MS2 coat protein; designed switch direction (-1 OFF switch, 1 ON switch): -1; higher = weaker reporter binding
Test Parameters: Eterna round: R95; input ligand: microRNA oligo, concentration not stated
Answers are plain numbers, in nM.

[
  {
    "Biosequence": "GGUUGCGCAGGAUAUACAUGAGGAUCACCCAUGUGAGAGAAAUAAGUGAGGAAGAAAAGUAGAAGGGCGUGACG [Mat - Exclusion 3 - Mod of Salish D72] (puzzle: Exclusion 3)",
    "Target Or Test System": "MS2 coat protein",
    "apparent KD of MS2 coat protein (nM)": 37.7
  }
]

Lab note: each sequence below needs its apparent KD of MS2 coat protein filled in.
1. UGUGCGUAUGUGAGGAUAUGCUGGUCCUUGGAUCAGCAGAAGGCACAUGAGGAUCACCCAUGUGGUGUCGUACC [salish99_Bmod_Ex4_002] (puzzle: Brourd's mod of Exclusion 4)
2. UUUUUACAUGAGGAUCACCCAUGUCAGGAUAUGCUUAUAUUUUAUUAUUUUAUUUUUUGCAGAAGGGACUAUUA [My solution] (puzzle: Exclusion 1)
3. AGCCCUUGUGUCAGGAUAUGCAUCCUUAAAGGACGGCAGAAGGGACAUGAGGAUCACCCAUGUAAAUAGAAAUU [Onatatge] (puzzle: Brourd's mod of Exclusion 4)
4. GCAGGAUAAGUGAGGAUAUACCUAUGGAUACAUAGGUAGAAGGUACAUGAGGAUCACCCAUGUUCCUCACCUGC [Fiskers BMX 4 - 64] (puzzle: Brourd's mod of Exclusion 4)
5. GAGAGAUAGAUAGAGGACGACAUGAGGAUCACCCAUGUGAGGGAAAUGUUAAGGAGAAAGCUUUUUGCUCGUCUUAA [JR_SV3TOV1_Sub034] (puzzle: Sensor v3, turn-off variant 1)

**A:**
243
80
84
10.1
57.7

====

Tested on: MS2 coat protein
Measurement Protocol: apparent KD of MS2 coat protein; higher = weaker reporter binding
Test Parameters: Eterna round: R107; input ligand: tryptophan 2.4 mM
Outcome label depends on apparent KD of MS2 coat protein relative to 0.04 µM: at/above gives t, below gives f.

See these solved cases before continuing.
[
  {
    "Biosequence": "CGUAAACAUGAGGAUCACCCAUGUGAUGAUACCAGCACGAUUAACUGCCCUUGGCAGCAUGUAUUGUACGACUUAUUGCCCAUCG [theeternabot_sameState_MS2_Theo_A_15]",
    "Classification": "f"
  },
  {
    "Biosequence": "UGAAAGUAGGGAAGGAGCGCUACAACAUGAGGAUCACCCAUGUUAUGAGGAUCACCCAUGUGGCAGGUAGGUCGCCCAAAACAUG [Same State Arginine B]",
    "Classification": "t"
  },
  {
    "Biosequence": "UUUAAAAUAACAGAUACCAGCGUGUUAUAAAACAUGAGGAUCACCCAUGUAGUGAUCAAGCGCCCUUGGCAGCUGGUAUUUUAGG [7.E]",
    "Classification": "t"
  },
  {
    "Biosequence": "UGACAUGAGGAUCACCCAUGUUUAGAUGAACGAGGACCGGUACGGCCGCCACUCGAUAAGUGGAAAGAGCGAGGGAUCGCAUGCU [Same State Trp A GF5]",
    "Classification": "f"
  },
  {
    "Biosequence": "AUGCAUAGCCGAAGGAGCGCAGUAGGAUGACAUGAGGAUCACCCAUGUGUGUGAUGUGGAUUGCAGGUAGGUCGCGGAGUGGUAU [Exclusion - Arginine B (Freestyle 5)]",
    "Classification": "t"
  }
]

Okay, now this sequence:
**Q:** # check: apparent KD of MS2 coat protein of ACAUGAGGCUCACCCAUGUGUAGUGGGUGGCGAGGACCGGUACGGCCGCCACUCGGCAACAUGAGGAUCACCCAUGUAAGGCCCU [RNA Blob] is greater than or equal to 0.04 µM
**A:** f

====

System: K4 kissing-loop RNA reporter
Measurement Protocol: apparent KD of K4 kissing-loop reporter; higher = weaker reporter binding
Test Parameters: Eterna round: R107; input ligand: tryptophan 2.4 mM
Hi, to clarify the labels: YES covers apparent KD of K4 kissing-loop reporter from 400 nM upward, NO covers anything below 400 nM.

Before answering, review these 5 worked examples.
[
  {
    "Biosequence": "CGCCAGGGUGAAGGAUAUCCGUCUGAUUGAGCGCAGUGAUGUUGCGCGAUUCGUUCAUCGCUCGGAGGAGAAGGUCAGAUAACUC [theeternabot_sameState_KL_FMN_B_3]",
    "Classification": "NO"
  },
  {
    "Biosequence": "GGACGCCGGUCGGCCGCCACUCACAGCAGUGAUGUUGCUGAGAAUGUAGCGGAGUGAUGUUCCGAGAGGACCGGGACUGCAGUUU [Same State Tryptophan B GF 9]",
    "Classification": "NO"
  },
  {
    "Biosequence": "CAAGCUCUCCAAGGAUAUGAUAUCGACCCGUCUUAGUGAUGUUAAGGCUGUAGAAAUUCACAUUGAUCAGAAGGUGGUACCCUCC [theeternabot_sameState_KL_FMN_B_8]",
    "Classification": "NO"
  },
  {
    "Biosequence": "GAGGCCAGACUGAGUGAUGUUUAGUAUGAUACCAGUAUCGAAGGAUACCCUUGGCAGCAUGCCACGGCCUCGGCGGGAAACCGCC",
    "Classification": "YES"
  },
  {
    "Biosequence": "UCCUUUGUUGCCAGUGAUGUUGGACAGGAAGGAGCGGGCAUAAGCCCAGGUAGGUCGCCUGUCAACUUUCUUAUAGCCCGAAGGU [KL-XArg-A19]",
    "Classification": "NO"
  }
]

**Q:** Please check the record UGAUAGGACAGAAGGAGCGGAAGUGAUGUUUCCUAAAGGAUAAAGGUGUCAAAGACACCCUUCCAGGUAGGUCGCUGUCCUAUCU [ArgBX 16 #Palindromic #SwitchBubble #StaticStem] and state if its apparent KD of K4 kissing-loop reporter is at or above 400 nM.
**A:** YES

====

Task for the reader: assign each of the following sequences its reported apparent KD of MS2 coat protein.
Tested on: MS2 coat protein
Measurement Protocol: apparent KD of MS2 coat protein; designed switch direction (-1 OFF switch, 1 ON switch): -1; higher = weaker reporter binding
Test Parameters: input ligand: none
Numbers only, in nM.

Report apparent KD of MS2 coat protein for every entry below.
1. GGUCGAAGUGUGAGGAUAUGCUGGUCCUUGGAUCAGCAGAAGGCACAUGAGGAUCACCCAUGUGGUAAACGACC [Mat - Exclusion 4 - Eli Mod - D34] (Eterna round: R97, puzzle: Brourd's mod of Exclusion 4)
2. ACUUAUAGAGGAUAUACAGAAUAUUACAUGAGGAUCACCCAUGUUCUUCAAUGUAUAUAAGUAGAAGGCUAAGGUU [Mat - Exclusion 5 - JL Mod - D5] (Eterna round: R97, puzzle: Exclusion 5)
3. GAUCGACAUGAGGAUCACCCAUGUCAGGAUAUCGUCACUGGAGCCUCGGCUCCAGUGACGAGAAGGGAUAUAAU [E1/16-A2] (Eterna round: R97, puzzle: Exclusion 1)

**A:**
1. 171
2. 33.4
3. 32

====

Test system: K4 kissing-loop RNA reporter;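 note: bound reporter read as fluorescence of individual clusters on recovered sequencing chips by microscopy, with normalized cluster intensities fitted with a binding model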
Measurement Protocol: apparent KD of K4 kissing-loop reporter; higher = weaker reporter binding
Test Parameters: Eterna round: R107; input ligand: FMN 200 uM
Kindly state apparent KD of K4 kissing-loop reporter for each of the entries shown.
Numbers only, in nM.

[
  {
    "Biosequence": "GGAGUUACCUGGGAUACCAGUCGGAGACCCAGAGCUCGGAGUGAUGUUCUGGGAUGUUUCGGCCCUUGGCAGCUCUGGGUCUCCC [#2 Exclusion - Theophylline B Attempt #8 (HarryS)]",
    "apparent KD of K4 kissing-loop reporter / nM": 909
  },
  {
    "Biosequence": "UGACUGGAUGGAAGGAGCGCUAAACUCCUAGUGAUGUUAGGGAAAUGAGGCAAAGCCUCGAGGCAGGUAGGUCGCCAUCUAGUCU [FiskerMod 18 - Jieux - Same State - Arginine B]",
    "apparent KD of K4 kissing-loop reporter / nM": 160
  }
]

Could you report apparent KD of K4 kissing-loop reporter for every entry in the following list?
1. GCGCGUCAUGUCAGCGGUGACUAUGUCGAUACCAGCAGGGAAACCUGCCCUUGGCAGCGACGCGCUGGAGUGAUGUUCCGACGGC [#2 Exclusion - Theophylline A Attempt #8 (HarryS)]
2. AUUUUUUUAUCAGGAUAUUAGUGUUGGUUUGUUUUGUUAGUGAUGUUGAUAUUUGUUUUAUGUAUUUAAGAAGGGAUUGAGAUGU [huupullin]

**A:**
1. 165
2. 283

# batch size: 5; output apparent KD of K4 kissing-loop reporter per entry
1. GCUAUGGUAGGAAGGAGCGCUUGCUCGGUCAUAUGAGUGAUGUUCGAGACCGAGCAUUUAUAGCAGGUAGGUCGCCUACUAUAGC [Arginine B K4 8]
2. CGAGAAAGAGCGACUGGCGAUCUGUCUGAAGGAGCGGGUGCUAGCCCAGGUAGGUCGCAGACUUUGACGCCAGUGAUGUUGGCGG [Titidiisxe]
3. UCCUGCAGUCUGCCACGAAAGUGGAUUGAUACCAGAGUCGAAAGACUCCCUUGGCAGCGAGUGAUGUUCGAAGCAGGUAAAUAAA [MatMod 1 - Jieux - Exclusion - Theophylline A]
4. AAUUCAGUGAUGUUGGAAGGCAGGCGGGAUACCAGCGGAGAAUAACGCCCUUGGCAGCCCAAAUAUCCCAAAUAGAUAAUAGUUC [Same State - Theophylline A (Freestyle 2)]
5. AGACUACCACACUGUCAAUAGACAGUGGACUAGGAUAUGCUGAUAAGCAGAAGGAGUGAUGUUCCUCGGUAGUCAAUAAAAUAAU [FmnAX 13 G28+C67]

**A:**
1. 253
2. 210
3. 160
4. 474
5. 323

Provide apparent KD of K4 kissing-loop reporter for all items below, preserving their order.
1. UUUUAUAACCGAAGGAGCGCGUGGGCGCAGUGAUGUUGCGCCCGACAUCACUUCAACUUAACGCAGGUAGGUCGCGGUUUUAAUG [Arginine B (Excl) V3]
2. CGAGUGAUGUUCGAAGAGUUGUUAAGCGAUACCAGCUAGGAAACUGGCCCUUGGCAGCGUAAUAAAUAAAUAAAUAAAUGAUCAC [whbob_Ex_Theo_A_th62]

**A:**
[148, 351]
